assay: Intrinsic clearance in human hepatocytes; type: ADME, cell-based, Hepatocyte; conditions: read-out: CLH
property-label: CLint scaled (mL/min/kg)
// units = mL/min/kg; emit number, no label

Q. Which measured CLint scaled value corresponds to C[C@@H]1Cc2nn3c(c2CN1C(=O)Nc1ccc(F)c(C#N)c1)C(=O)N(C)C[C@@H](F)C3 ?
A. 7.7

* * *

assay: Modulation of capsid assembly in HBV infected in human HepG2.2.15 cells assessed as inhibition of viral DNA replication
property-label: pEC50
The quantity pEC50 is defined as the negative base-10 logarithm of the molar concentration.

Q. Which measured pEC50 value corresponds to CN1OC(CO)Cn2nc3c(c2C1=O)CN(C(=O)Nc1ccc(F)c(Cl)c1)CC3 (racemic) ?
A. 8.05
